# Tested on: MCF7
# Experimental protocol: Induction of apoptosis in human MCF7 cells after 24 hrs by caspase-Glo 3/7 reagent based luminescence assay
# Assay type: functional, cell-based
# Cond: MCF7, 24 h
pEC50: −log10 of the molar value.
Assay metric: pEC50

COc1ccc2c(c1)N(C)CCN2S(=O)(=O)c1ccc(N2CCCC2=O)cc1 :: 7.34

P. CN1CCN(S(=O)(=O)c2ccc(N3CCCC3=O)cc2)c2ccccc21
Q. CN1CCN(S(=O)(=O)c2ccc(N3CCCC3)cc2)c2ccccc21
R. O=C1CCCN1c1ccc(S(=O)(=O)N2CCCc3ccccc32)cc1
S. Cc1ccc2c(c1)CCCN2S(=O)(=O)c1ccc(N2CCCC2=O)cc1
Query: Arrange the 4 molecules by rising pEC50, starting with the smallest. Reply format: the labels, ordered as requested.
Result: S, R, P, Q
(S: 7.21, R: 7.64, P: 7.89, Q: 8.22)

====

# Experimental protocol: Lipophilicity, log D of the compound at pH 7
# Assay type: physicochemical
# Cond: buffer
Assay metric: logD

Example cases with answers are listed next.
O=C1CCCN1c1ccc(S(=O)(=O)N2CCCc3cc(Cl)ccc32)cc1 :: 3.1
O=C1CCCN1c1ccc(S(=O)(=O)N2CCOc3ccccc32)cc1 :: 1.7
O=S(=O)(c1ccc(N2CCCC2)cc1)N1CCCc2ccccc21 :: 3.7
O=C1CCCN1c1ccc(S(=O)(=O)N2CCCc3ccccc32)cc1 :: 2.5

I. CN1CCN(S(=O)(=O)c2ccc(N3CCCC3=O)cc2)c2ccccc21
II. O=S(=O)(c1ccc(N2CCC=N2)cc1)N1CCCc2ccccc21
Query: # argmax over logD for candidates I and II Lab note: record the label of whichever item you select.
Result: II

====

# Experimental protocol: Lipophilicity, log D of the compound at pH 3
# Type: physicochemical
# Cond: buffer
Assay metric: logD

COc1ccc2c(c1)N(C)CCN2S(=O)(=O)c1ccc(N2CCCC2=O)cc1 :: 2.9
O=C1CCCN1c1ccc(S(=O)(=O)N2CCCc3cc(Cl)ccc32)cc1 :: 3.1
CC1CN(C)c2ccccc2N1S(=O)(=O)c1ccc(N2CCCC2=O)cc1 (racemic) :: 3.3

1. CN1CCN(S(=O)(=O)c2ccc(N3CCCC3=O)cc2)c2ccccc21
2. O=S(=O)(c1ccc(N2CCCC2)cc1)N1CCCc2ccccc21
Query: Dear colleague, could you let me know whether 1 or 2 has the lower recorded logD? Thanks. Lab note: record the label of whichever item you select.
Result: 1
(1: 1.9, 2: 3.6)

====

# Experimental protocol: Drug uptake in serum of athymic nude mouse xenografted with human MDA-MB-231 cells at 20 mg/kg, ip qd administered for 16 consecutive days by HPLC/MS analysis
# Format: ADME, organism-based
# Cond: read-out: Drug uptake
Assay metric: concentration at 16 days (ng/mL)
Record the value in ng/mL, omitting the unit from your answer.

Query: Respond only with concentration at 16 days recorded for CN1CCN(S(=O)(=O)c2ccc(N3CCCC3=O)cc2)c2ccccc21
Result: 200

====

# Experimental protocol: Oral bioavailability in rat
# Assay type: ADME, organism-based
# Cond: in vivo
Assay metric: bioavailability

Query: Respond only with bioavailability recorded for CN1CCN(S(=O)(=O)c2ccc(N3CCCC3=O)cc2)c2ccccc21
Result: 15 to 20%

====

# Experimental protocol: Solubility of the compound
# Type: physicochemical
Assay metric: solubility (µM)

O=C1CCCN1c1ccc(S(=O)(=O)N2CCCc3ccccc32)cc1 :: 7.8
O=C1CCCN1c1ccc(S(=O)(=O)N2CCOc3ccccc32)cc1 :: 26.6
CC1CN(C)c2ccccc2N1S(=O)(=O)c1ccc(N2CCCC2=O)cc1 (racemic) :: 23.1

I. COc1ccc2c(c1)N(C)CCN2S(=O)(=O)c1ccc(N2CCCC2=O)cc1
II. CN1CCN(S(=O)(=O)c2ccc(N3CCCC3=O)cc2)c2ccccc21
Query: Dear colleague, could you let me know whether I or II has the lower recorded solubility? Thanks. Lab note: record the label of whichever item you select.
Result: II
(II: 28.2 µM, I: 69.6 µM)

P. O=C1CCCN1c1ccc(S(=O)(=O)N2CCCc3cc(Cl)ccc32)cc1
Q. O=S(=O)(c1ccc(N2CCC=N2)cc1)N1CCCc2ccccc21
Query: Dear colleague, could you let me know whether P or Q has the lower recorded solubility? Thanks. Lab note: record the label of whichever item you select.
Result: P
